MEASURED PROPERTY: melting point

A selection of reference data follows.
input: Query: melting point; subject: CCCCCNC12CN3CN(CN(C3)C1)C2
output: 119 to 120 °C

input: Query: melting point; subject: Cc1nc(N2CCCC(CO)C2)c2nc(-c3ccccc3)cc-2[nH]1 (stereo unspecified)
output: 255 to 256 °C

Continuing:
input: Query: melting point; subject: Cc1cn(-c2cc(NC(=O)c3cccc4cc(O)ccc34)cc(C(F)(F)F)c2)cn1
output: 169 to 172 °C

input: Query: melting point; subject: CNC(=O)NS(=O)(=O)c1ccccc1OCCCl
output: 218 to 222 °C

---

In this section we review reported melting point values for a set of molecules.

input: Query: melting point; subject: Cc1c(C(=O)O)ccc2c1OCO2
output: 180 to 182 °C

Kindly review the next molecule as well.
input: Query: melting point; subject: COC(=O)C(Cl)(C(=O)OC)[C@@H](C[N+](=O)[O-])c1ccccc1
output: 175 to 177 °C

---

In this section we review reported melting point values for a set of compounds.

A selection of reference data follows.
input: Query: melting point; subject: COc1ccc2c(c1)CCc1c-2cc(-c2ccccc2)n1-c1ccc(O)c(C(=O)O)c1
output: 233 to 234 °C

input: Query: melting point; subject: NCCCN1CCN(C(c2ccccc2)c2ccccc2)CC1
output: 62 to 63 °C

input: Query: melting point; subject: CN1C(=O)COc2cc3c(cc21)C1(CO3)C(=O)N(CC2CCCO2)c2ccccc21 (configuration not stated)
output: 79 to 81 °C

input: Query: melting point; subject: O=C1CC(c2ccccc2)Cc2c1ccn2C(=O)c1ccccc1 (configuration not stated)
output: 140 to 142 °C

input: Query: melting point; subject: COc1cccc(CSc2c(O)cc(-c3ccccc3)oc2=O)c1
output: 134 to 136 °C

Continuing:
input: Query: melting point; subject: Cc1ccc(-c2cnc(-c3cc(C(F)(F)F)cs3)s2)s1
output: 131 to 133 °C

input: Query: melting point; subject: Cc1cc(Cl)cc(C(=O)Nc2nc(C)cs2)n1
output: 176 °C

---

In this section we review reported melting point values for a set of compounds.

A selection of reference data follows.
input: Query: melting point; subject: COc1ccc(-c2ccc(C(=O)NN)cc2)cc1OC1CCCC1
output: 167 to 168 °C

input: Query: melting point; subject: CCCN(CCC)[C@@H]1Cc2c(Br)ccc3c2[C@@H](C1)CN3C(=O)c1ccccc1
output: 93 °C

input: Query: melting point; subject: N#Cc1ccc2oc(-c3ccc(O)cc3)cc(=O)c2c1
output: 296 to 298 °C

input: Query: melting point; subject: COc1cc(NC(=O)C(C#N)=CNc2ccc(OC)c(I)c2)c(Cl)cc1Cl
output: 289 to 290 °C

input: Query: melting point; subject: Cc1nc2ccccc2n2cnc(C(=O)OC(C)C)c12
output: 182 to 183 °C

input: Query: melting point; subject: O=C(O)c1cn(Cc2csnn2)c2cc(F)c(F)cc2c1=O
output: 257 to 261 °C

Kindly review the next compound as well.
input: Query: melting point; subject: COc1ccc(C2CCN(c3c(C)c(C)c4c(c3C)C(O)(c3ccsc3)C(C)(C)O4)CC2)cc1OC (configuration not stated)
output: 125 to 128 °C
